Biological target: T1, human CD19 on Raji cells (human, UniProt P15391 20-556)
T1 construct: whole, on cells
T1 sequence (looked up): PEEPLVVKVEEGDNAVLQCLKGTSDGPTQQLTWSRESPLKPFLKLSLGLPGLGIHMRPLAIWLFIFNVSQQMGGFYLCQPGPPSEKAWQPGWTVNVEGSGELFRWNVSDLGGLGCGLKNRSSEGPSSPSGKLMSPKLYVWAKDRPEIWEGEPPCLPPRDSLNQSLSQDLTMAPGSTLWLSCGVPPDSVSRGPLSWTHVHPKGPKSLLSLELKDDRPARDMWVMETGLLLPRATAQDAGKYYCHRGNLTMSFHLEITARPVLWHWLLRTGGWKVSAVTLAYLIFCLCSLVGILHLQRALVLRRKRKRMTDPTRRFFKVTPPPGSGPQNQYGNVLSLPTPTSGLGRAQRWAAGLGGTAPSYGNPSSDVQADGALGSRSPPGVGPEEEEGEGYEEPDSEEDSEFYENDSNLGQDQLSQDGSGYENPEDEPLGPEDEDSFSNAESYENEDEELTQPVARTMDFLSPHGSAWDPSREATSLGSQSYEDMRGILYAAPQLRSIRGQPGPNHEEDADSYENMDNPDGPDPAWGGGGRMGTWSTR
Test: FACS on Raji cells
PARAMETER_MEASURED: Maximum mean fluorescence intensity
Returns: the value as a bare number; no unit string appended.

The cases that follow already have their Maximum mean fluorescence intensity on record.
{"BINDER": "F4.276.12 (antibody, human IgG1, V domains shown, human-murine chimeric antibody, human IgG1) VH: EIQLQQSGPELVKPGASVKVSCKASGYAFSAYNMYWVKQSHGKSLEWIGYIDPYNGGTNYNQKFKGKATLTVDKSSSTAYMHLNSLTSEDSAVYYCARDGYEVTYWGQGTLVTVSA VL: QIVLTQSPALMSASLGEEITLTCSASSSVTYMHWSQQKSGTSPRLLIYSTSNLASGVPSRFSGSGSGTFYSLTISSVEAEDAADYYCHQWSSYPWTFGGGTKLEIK", "MEASURED_VALUE": 23500}
{"BINDER": "F5.8.6 (antibody, human IgG1, V domains shown, human-murine chimeric antibody, human IgG1) VH: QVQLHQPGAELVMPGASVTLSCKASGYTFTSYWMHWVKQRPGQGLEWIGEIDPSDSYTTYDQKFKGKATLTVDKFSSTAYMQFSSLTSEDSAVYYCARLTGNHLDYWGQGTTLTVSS VL: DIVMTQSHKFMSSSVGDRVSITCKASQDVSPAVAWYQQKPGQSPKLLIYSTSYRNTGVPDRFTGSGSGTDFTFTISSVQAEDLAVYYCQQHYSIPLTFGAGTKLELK", "MEASURED_VALUE": 27300}
{"BINDER": "F4.48.12 (antibody, human IgG1, V domains shown, human-murine chimeric antibody, human IgG1) VH: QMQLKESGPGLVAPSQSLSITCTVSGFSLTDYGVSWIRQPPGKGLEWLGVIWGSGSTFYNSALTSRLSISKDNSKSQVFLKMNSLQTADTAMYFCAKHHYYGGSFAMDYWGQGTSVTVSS VL: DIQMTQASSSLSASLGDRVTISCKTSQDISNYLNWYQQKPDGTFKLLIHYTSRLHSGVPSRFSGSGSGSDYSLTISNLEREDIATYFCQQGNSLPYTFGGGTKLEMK", "MEASURED_VALUE": 29300}
{"BINDER": "F6.12.12 (antibody, human IgG1, V domains shown, human-murine chimeric antibody, human IgG1) VH: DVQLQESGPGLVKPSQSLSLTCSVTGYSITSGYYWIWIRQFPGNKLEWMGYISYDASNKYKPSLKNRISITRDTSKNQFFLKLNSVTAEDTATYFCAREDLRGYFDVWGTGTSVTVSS VL: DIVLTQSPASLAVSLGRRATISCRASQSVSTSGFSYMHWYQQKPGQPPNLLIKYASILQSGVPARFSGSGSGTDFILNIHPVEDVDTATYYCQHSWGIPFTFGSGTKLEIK", "MEASURED_VALUE": 43300}
{"BINDER": "F4.49.11 (antibody, human IgG1, V domains shown, human-murine chimeric antibody, human IgG1) VH: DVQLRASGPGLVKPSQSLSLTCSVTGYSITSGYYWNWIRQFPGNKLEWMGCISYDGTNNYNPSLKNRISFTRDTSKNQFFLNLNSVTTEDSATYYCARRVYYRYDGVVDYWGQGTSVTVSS VL: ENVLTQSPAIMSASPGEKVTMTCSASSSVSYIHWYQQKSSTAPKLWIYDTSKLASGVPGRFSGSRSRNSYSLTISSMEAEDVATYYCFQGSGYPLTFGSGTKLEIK", "MEASURED_VALUE": 20300}
{"BINDER": "F4.41.1 (antibody, human IgG1, V domains shown, human-murine chimeric antibody, human IgG1) VH: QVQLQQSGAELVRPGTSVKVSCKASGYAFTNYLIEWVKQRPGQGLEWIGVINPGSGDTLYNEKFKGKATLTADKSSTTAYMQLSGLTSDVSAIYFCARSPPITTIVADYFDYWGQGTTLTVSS VL: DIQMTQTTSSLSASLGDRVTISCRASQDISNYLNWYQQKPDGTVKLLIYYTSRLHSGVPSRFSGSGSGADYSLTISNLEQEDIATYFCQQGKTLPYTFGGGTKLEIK", "MEASURED_VALUE": 23400}

Now consider the entry below.
// sample F4.107.12 (antibody, human IgG1, V domains shown, human-murine chimeric antibody, human IgG1) VH: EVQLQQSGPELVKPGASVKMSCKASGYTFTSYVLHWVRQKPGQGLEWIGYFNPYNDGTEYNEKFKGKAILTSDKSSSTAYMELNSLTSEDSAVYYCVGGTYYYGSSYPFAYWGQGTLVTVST VL: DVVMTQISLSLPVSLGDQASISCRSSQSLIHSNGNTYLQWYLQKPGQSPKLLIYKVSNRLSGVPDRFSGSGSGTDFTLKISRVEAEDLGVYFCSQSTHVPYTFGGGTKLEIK , its Maximum mean fluorescence intensity was 26700

This collection of values is drawn from patent US20250042994A1.
